# Assay: Cytotoxicity against mouse RAW264.7 cells assessed as macrophage viability at 10 uM relative to control
# Format: toxicity, cell-based
# Measurement Context: read-out: Activity

{"Compound": "COc1cccc(NC(=O)c2cccc(C3CC(=O)c4c(cc(OC)c(OC)c4OC)O3)c2)c1 (racemic)", "Value Unit": "%", "viability at 10 µM": 112}
{"Compound": "COc1cc2c(c(OC)c1OC)C(=O)CC(c1cccc(NC(=O)c3cccc(Cl)c3)c1)O2 (racemic)", "Value Unit": "%", "viability at 10 µM": 100}
{"Compound": "COc1cc2c(c(OC)c1OC)C(=O)CC(c1cccc(C(=O)Nc3ccccc3Br)c1)O2 (racemic)", "Value Unit": "%", "viability at 10 µM": 101}
{"Compound": "COc1cccc(CNC(=O)c2cccc(C3CC(=O)c4c(cc(OC)c(OC)c4OC)O3)c2)c1 (racemic)", "Value Unit": "%", "viability at 10 µM": 107}
{"Compound": "COc1cc2c(c(OC)c1OC)C(=O)CC(c1cccc(NC(=O)c3ccc(Br)cc3)c1)O2 (racemic)", "Value Unit": "%", "viability at 10 µM": 106}
{"Compound": "COc1cc2c(c(OC)c1OC)C(=O)CC(c1cccc(C(=O)Nc3ccc(Br)cc3)c1)O2 (racemic)", "Value Unit": "%", "viability at 10 µM": 113}
{"Compound": "COc1ccc(NC(=O)c2cccc(C3CC(=O)c4c(cc(OC)c(OC)c4OC)O3)c2)cc1 (racemic)", "Value Unit": "%", "viability at 10 µM": 111}
{"Compound": "COc1cc2c(c(OC)c1OC)C(=O)CC(c1cccc(C(=O)Nc3ccccc3)c1)O2 (racemic)", "Value Unit": "%", "viability at 10 µM": 110}
{"Compound": "COc1cccc(C(=O)Nc2cccc(C3CC(=O)c4c(cc(OC)c(OC)c4OC)O3)c2)c1 (racemic)", "Value Unit": "%", "viability at 10 µM": 98}
{"Compound": "COc1cc2c(c(OC)c1OC)C(=O)CC(c1cccc(NC(=O)c3ccccc3)c1)O2 (racemic)", "Value Unit": "%", "viability at 10 µM": 97}
{"Compound": "COc1cc2c(c(OC)c1OC)C(=O)CC(c1cccc(C(=O)Nc3cccc(Cl)c3)c1)O2 (racemic)", "Value Unit": "%", "viability at 10 µM": 93.9}
{"Compound": "COc1ccc(C(=O)Nc2cccc(C3CC(=O)c4c(cc(OC)c(OC)c4OC)O3)c2)cc1 (racemic)", "Value Unit": "%", "viability at 10 µM": 102}
{"Compound": "COc1ccccc1C(=O)Nc1cccc(C2CC(=O)c3c(cc(OC)c(OC)c3OC)O2)c1 (racemic)", "Value Unit": "%", "viability at 10 µM": 103}
{"Compound": "COc1cc2c(c(OC)c1OC)C(=O)CC(c1cccc(NC(=O)c3ccc([N+](=O)[O-])cc3)c1)O2 (racemic)", "Value Unit": "%", "viability at 10 µM": 104}
{"Compound": "COc1cc2c(c(OC)c1OC)C(=O)CC(c1cccc(NC(=O)c3ccc(C#N)cc3)c1)O2 (racemic)", "Value Unit": "%", "viability at 10 µM": 115}
{"Compound": "COc1cc2c(c(OC)c1OC)C(=O)CC(c1cccc(C(=O)Nc3cccc(Br)c3)c1)O2 (racemic)", "Value Unit": "%", "viability at 10 µM": 97.9}
{"Compound": "COc1cc2c(c(OC)c1OC)C(=O)CC(c1cccc(C(=O)Nc3cccc([N+](=O)[O-])c3)c1)O2 (racemic)", "Value Unit": "%", "viability at 10 µM": 111}
{"Compound": "COc1cc2c(c(OC)c1OC)C(=O)CC(c1cccc(NC(=O)c3cccc(Br)c3)c1)O2 (racemic)", "Value Unit": "%", "viability at 10 µM": 105}
{"Compound": "COc1cc2c(c(OC)c1OC)C(=O)CC(c1cccc(C(=O)Nc3cccc(F)c3)c1)O2 (racemic)", "Value Unit": "%", "viability at 10 µM": 110}
{"Compound": "COc1cc2c(c(OC)c1OC)C(=O)CC(c1cccc(C(=O)Nc3ccncc3)c1)O2 (racemic)", "Value Unit": "%", "viability at 10 µM": 91.3}
{"Compound": "COc1cc2c(c(OC)c1OC)C(=O)CC(c1cccc(C(=O)Nc3cccnc3)c1)O2 (racemic)", "Value Unit": "%", "viability at 10 µM": 109}
{"Compound": "COc1cc2c(c(OC)c1OC)C(=O)CC(c1cccc(NC(=O)c3ccccc3Br)c1)O2 (racemic)", "Value Unit": "%", "viability at 10 µM": 101}
{"Compound": "COc1ccccc1NC(=O)c1cccc(C2CC(=O)c3c(cc(OC)c(OC)c3OC)O2)c1 (racemic)", "Value Unit": "%", "viability at 10 µM": 103}
{"Compound": "COc1cc2c(c(OC)c1OC)C(=O)CC(c1cccc(C(=O)Nc3ccc(C#N)cc3)c1)O2 (racemic)", "Value Unit": "%", "viability at 10 µM": 122}

Each recorded value in this set is attributed to ChEMBL document CHEMBL5625164.
